Attribution: a melting point compilation (Tetko et al.; mined from patent text by program, amines drawn as free bases though some values may be those of a salt)

# Lookup of reported melting point keyed by entry
resultType: melting point

| compound | resultValue |
| --- | --- |
| O=[N+]([O-])c1cccc2c1C[C@H]1CSC(=S)N1C2 | 203 °C |
| Cc1ccc(C)c(S(=O)(=O)n2ccc3c4c(N)nc(N)nc4ccc32)c1 | 272 °C |
| Cc1cc(C(O)(C(F)(F)F)C(F)(F)F)cc(C)c1OCCNCc1ccccc1 | 117 to 120 °C |
| CCCS(=O)c1sc(C(N)=O)c2c1-c1c(cnn1C)CC2 (stereo not given) | 194 to 195 °C |
| Cc1cc2c(c(C)c1O)C(C)CN2C(=O)C(C)C (stereo not given) | 123 to 125 °C |
| CCOC(=O)CCCOc1ccc(C(=O)Nc2ccccc2Sc2ccccc2-c2nnn[nH]2)cc1 | 173 to 175 °C |
| COC(=O)CC1(O)CC2CCC1(CS(=O)(=O)N1CCC3(C=Cc4ccccc43)CC1)C2(C)C (stereo not given) | 81 to 83 °C |
| COC1(c2cccc(S(=O)(=O)c3ccc4c(c3)oc(=O)n4C)c2)CCOCC1 | 163 to 165 °C |
| CCCCCCc1ccc(/C(Cl)=C/c2ccc(Br)cc2)cc1 | 52 °C |
| N#Cc1c(N2CCCC2)cc(-c2ccccc2)c2c1C(=O)c1ccccc1-2 | 166 to 168 °C |

---

# Lookup of reported melting point keyed by entry

| compound | melting point |
| --- | --- |
| COC(=O)c1ccccc1Oc1ccc(C(F)(F)F)cc1[N+](=O)[O-] | 69 to 70 °C |
| CCCn1ccc2c(c1=O)C(c1ccccc1)C(C(=O)OCC)=C(C)N2 (stereo not given) | 215 to 217 °C |
| C[C@@H](n1ccnn1)[C@](O)(Cn1ccnc1)c1ccc(F)cc1F | 150 to 151 °C |
| Cc1sccc1-c1nc2c3ccsc3ccn2c1N | 161 to 162 °C |
| CCn1c(=O)c2[nH]c(-c3ccc(S(=O)(=O)N4CCN(C)CC4)cc3)nc2n(CC)c1=O | 305 to 307 °C |
| Cc1nc(C=O)c2n1-c1ccc(Cl)cc1C(c1ccccc1Cl)=NC2 | 237 to 239 °C |
| COc1ccc(-c2[nH]nc3c2C(=O)c2c(NC(=O)NNC(=O)CCCc4ccccc4)cccc2-3)cc1 | 269 °C |
| O=C(O)c1ccc2oc3c(c(=O)c2c1)CCCC3=Cc1ccccc1 | 284 to 286 °C |
| CC(C=O)Oc1ccc(OCc2ccccc2)cc1 (stereo not given) | 50 to 51 °C |
| CN(C)Cc1cc(NC(=O)OC(C)(C)C)c(N)cc1-c1ccc(F)cc1 | 97 to 125 °C |
| CC(=NO)c1ccc(NS(C)(=O)=O)c(Oc2ccc(F)cc2F)c1 | 150 to 151 °C |
| O=c1[nH]nc2c3c(cccc13)N=C(CN1CCCN(S(=O)(=O)c3ccccc3)CC1)N2 | 265 to 268 °C |
| O=c1c(-c2ccccn2)c(O)c2cccnc2n1-c1ccccc1 | 332 to 333 °C |
| CC(=O)Nc1ccc2[nH]c(CO)cc2c1 | 161 °C |
| Cc1cc(O)ccc1-c1ccc(C=NO)c(Cl)c1 | 169 to 171 °C |
| O=C(CCC(F)(F)F)N[C@H]1CC[C@H](CCN2CCC(c3cccc4c3CCO4)CC2)CC1 | 200 °C |
| COc1ccc(N(C(=O)OC(C)(C)C)S(=O)(=O)c2ccc(F)cc2)cc1OC | 99 to 102 °C |
| c1ccc2c(c1)OCC(CN1CCC(CNc3nc4cnccc4s3)CC1)O2 (stereo not given) | 147 °C |
| O=C(CCNC(=O)n1cc(F)c(=O)[nH]c1=O)N1CCOCC1 | 178 to 180 °C |
| CCCCCCCCOC(=O)C=CC(=O)OC(=C1C(=O)N(C(N)=O)c2cc(Cl)c(F)cc21)c1cccs1 | 140 to 148 °C |

---

# Lookup of reported melting point keyed by entry
resultType: melting point

| compound | resultValue |
| --- | --- |
| CC1=C(C=O)COc2ccccc21 | 68 to 70 °C |
| CC(C)(C)C(=O)Nc1ccc(Cl)cc1C1(O)CCN(C/C=C/c2ccc(Cl)cc2)CC1 | 177 to 179 °C |
| CS(=O)(=O)c1ccc(-n2cncc2-c2ccc(F)cc2F)cc1 | 119 °C |
| COc1nc(C)cnc1NS(=O)(=O)c1cccnc1-c1ccc(C(C)C)cc1 | 74 to 75 °C |
| O=C(CC1c2ccccc2C(=O)N1c1ccc2ccc(Cl)nc2n1)N1CCC2(CC1)OCCO2 (stereo unspecified) | 238 to 239 °C |
| CCOC(=O)C1(Cl)C(=O)N2CCOc3cc(Cl)cc1c32 (stereo unspecified) | 147 to 148 °C |
| CCCCCC1(O)CCC2(C)C(CCC3C4CCC(C5(C)OCCO5)C4(C)CC(=O)C32)C1 (stereo unspecified) | 106 °C |
| CC(C)[C@H](NC(=O)OC(C)(C)C)C(=O)N[C@H](CCC(=O)OCc1ccccc1)C(N)=O | 149 to 151 °C |
| ClCc1cn2c(-c3ccccc3)cccc2n1 | 126 to 127 °C |
| Cc1cccc(Nn2c(C)c(C)[nH]c2=S)c1 | 230 °C |
| COc1cc(-n2cccn2)ccc1-n1cc(OC)c(=O)c(C(C)=O)n1 | 193 to 196 °C |
| Cc1c2ccnc(Cl)c2cc2c1[nH]c1ccncc12 | > 263 °C |
| O=C(NCc1cccs1)n1cc(F)c(=O)[nH]c1=O | 131 to 132 °C |
| O=C(Nc1c(Br)cc(Br)cc1C(=O)NCC1CCCCC1)N[C@@H](Cc1ccc(NC(=O)c2c(Cl)cccc2Cl)cc1)C(=O)O | 193 °C |
| CON=C(C)c1cc(-c2ccc(S(C)(=O)=O)cc2)c(-c2ccc(F)cc2)s1 | 200 to 203 °C |
| O=C(NCCSCc1cccc(C(F)(F)F)c1)c1c(Cl)cccc1Cl | 54 to 55 °C |
| Cc1nc2c(C=O)cccn2c1C | 145 to 148 °C |
| CCCCNc1nc2cnnc(OCC)c2cc1C(=O)OCC | 98 to 99 °C |
| COC(=O)C1=C(C)NC(C)=C(C(=O)OCCN2C(=O)c3ccccc3C2=O)C1c1cccc([N+](=O)[O-])c1 (stereo unspecified) | 182 °C |
| CCCCCC(CCCCC)n1c(=O)sc2c(=O)[nH]c(N)nc21 | > 195 °C |
| Cc1cc2c(cc1C1=NNC(=O)CC1C)NC(=O)CO2 (stereo unspecified) | 163 to 166 °C |

---

# Lookup of reported melting point keyed by entry
resultType: melting point

| compound | resultValue |
| --- | --- |
| CC(C)Oc1ccnc2c1c(I)cn2S(=O)(=O)c1ccccc1 | 151 to 153 °C |
| COC(=O)COc1ccc(C(C)=O)cc1C | 51 to 53 °C |
| COc1cc2cc3ncc(C#N)c(Nc4ccc(Oc5ccccc5)c(Cl)c4)c3cc2cc1OCCN1CCOCC1 | 251 to 253 °C |
| CN(C)C=C1N=C(c2ccccc2Cl)c2cc(Cl)ccc2N(C)C1=O | 199 to 200 °C |
| COC(=O)C(=NO)c1ccccc1 | 151 to 153 °C |
| CC(C)(C)CC(=O)Nc1ccc2oc3c(c2c1)CCCCC3 | 182 to 183 °C |
| O=C(Nc1ccc(Cl)c(Cl)c1)OCCCC(O)c1ccccc1 (stereo unspecified) | 86 to 89 °C |
| O=Cc1ccc(-c2ccnc(-c3ccc(OC(F)(F)F)cc3)n2)cc1 | 70 to 73 °C |
| CCCNC(=O)c1ccccc1N=C(NC(=O)c1ccccc1)SC | 86 to 89 °C |
| Clc1cccc(N2CCN(CCCCNc3ccc(-c4ccccc4)cn3)CC2)c1Cl | 110 °C |
| Cc1cc(CCCOc2ccc(-c3noc(C(F)(F)F)n3)cc2C)on1 | 69 to 70 °C |
| Nc1nc2n(C3OC(CO)C(O)C3O)[nH]cc-2c(=S)n1 (stereo unspecified) | 222 to 224 °C |
| OCCOc1ccc(-n2cncn2)cc1 | 151 to 152 °C |
| COC(=O)c1cc(N)cs1 | 76 to 78 °C |
| Cc1cc(C#N)c(C)c(C(=O)Nc2ccc(C#N)cn2)n1 | 216 °C |
| O=C(O)CNC(=O)Cc1ccc(Cl)cc1S | 148 to 149 °C |
| CSCc1nnnn1C1CCN(c2ccc(N3C[C@H](CNC(C)=O)OC3=O)cc2F)CC1 | 118 to 119 °C |
| BrCc1ccc2ccccc2c1CBr | 149 to 150 °C |
| Cc1c(NC(=O)OC(C)(C)C)cnn1-c1cccnc1 | 89 to 91 °C |
| Nc1nc2c(sc(=O)n2Cc2ccc(Br)cc2)c(=O)[nH]1 | > 320 °C |
| CC(=O)c1c(C)c2c(C)[nH]c(-c3ccccc3)c2[nH]c1=O | 250 to 251 °C |
| CC(C)n1nc(C#Cc2cccc(F)c2)ccc1=O | 95.5 to 96.5 °C |
| O=C(NCCN1CCCCC1n1c(=O)[nH]c2ccccc21)c1cccc(F)c1 (stereo unspecified) | 226 °C |
| CC(=O)OC1CSC(Oc2cccnc2Cl)C(OC(C)=O)C1OC(C)=O (stereo unspecified) | 160 °C |
| COC(=O)CCc1cc2cc(Cl)ccc2n1S(=O)(=O)c1ccc(C(C)=O)cc1 | 83 to 87 °C |
| COC(=O)C(C(=O)c1ccc(Cc2cn(C)c3ccc(NC(=O)OC4CCCC4)cc23)c(OC)c1)S(=O)(=O)c1ccccc1 (stereo unspecified) | 65 to 70 °C |
| COC(=O)C#Cc1c(C#N)nn(-c2c(Cl)cc(C(F)(F)F)cc2Cl)c1N | 201 to 202 °C |
| CCCn1nc2c(N)nc3c(c2c1CCCc1cc(-c2cccnc2)no1)CCCC3 | 168 to 170 °C |
| CC(c1oc2ccccc2c(=O)c1-c1cccc(F)c1)n1nc(-c2ccccc2CO)c2c(N)ncnc21 (stereo unspecified) | 185 to 189 °C |
| CCCOc1ccc(S(C)(=O)=O)cc1-c1nc2c(CC)nn(Cc3ccccn3)c2c(=O)[nH]1 | 209 to 211 °C |
| O=C(Nc1cccc(-c2ccnc3c(C(=O)c4cccs4)cnn23)c1)c1ccccc1 | 211 to 213 °C |
| CCCCCc1nc(NC(=N)N)sc1-c1cccc([N+](=O)[O-])c1 | 135 to 137 °C |
| CN(Cc1cccc2c1C(=O)N(C1CCC(=O)NC1=O)C2=O)C(=O)Nc1ccc(Cl)cc1 (stereo unspecified) | 279 to 281 °C |
| CN(C)CCOc1ccc2sc(C(=O)Nc3ccccc3N)cc2c1 | 191 to 193 °C |
| C[C@H](C(=O)O)c1ccc2cc(OCCCCCCc3ccc(O)c(O)c3)ccc2c1 | 103 to 106 °C |
| COC(=O)C1=C(C)NC2=C(C(=O)OC2)C1c1ccc2c(c1)OCO2 (stereo unspecified) | 226 to 228 °C |
| Cc1ccccc1NC1=CCC(C)n2c1ncc(C(=O)O)c2=O (stereo unspecified) | 157 to 159 °C |
| CC(C)(O)c1cccc(S(N)(=O)=O)c1 | 107 to 108 °C |
| COc1cc(C(C)C)c2c(c1)S(=O)(=O)N(COC(=O)c1sccc1C)C2=O | 132 to 134 °C |
| Cc1nnc(CNc2c(C)cccc2C)s1 | 68 to 69 °C |
| CC(=O)N1CCC(CCC(=O)c2ccc3c4c2CCCC4CN3C(C)=O)CC1 (stereo unspecified) | 130 to 132 °C |
